Data credit: PubChem BioAssay (NCATS)

Test system: HEK293
measurement-notes: Cytotoxic Profiling of Annotated Libraries Using Quantitative High-Throughput Screening (AID 1296008); note: nearly all actives have a fitted effect of over 60% in size
details: Five cell lines viability, CellTiter-Glo ATP luminescence, 48-72 h
Inconclusive results are not listed. Activity calls are given as the source filed them. Calls come from the whole dose curve; as a rule, active = well fitted inhibition curve with a large enough effect; inconclusive = small, poorly fitted or top-dose-only effect; inactive = flat fitted curve, though single readings scatter.
Classes used: 1.0 = active, 0.0 = inactive

OC[C@H]1OC(O)C[C@@H](O)[C@H]1O (some centres not stated)	0.0
C=Cc1c(C)c2cc3nc(cc4[nH]c(cc5nc(cc1[nH]2)C(C)=C5CCC(=O)O)c(CCC(=O)OC)c4C)[C@@]1(C)C3=CC=C(C(=O)OC)[C@H]1C(=O)OC	1.0
COC1=C2C[C@@H](C)C[C@H](OC)[C@@H](O)[C@@H](C)C=C(C)[C@H](OC(N)=O)[C@@H](OC)C=CC=C(C)C(=O)NC(=CC1=O)C2=O	1.0
C[C@@H]1CC[C@@]2(OC1)OC1CC3C4CC=C5CC(O)CCC5(C)C4CCC3(C)C1[C@@H]2C (some centres not stated)	1.0
CCN(CC)CCNC(=O)c1c(C)[nH]c(C=C2C(=O)Nc3ccc(F)cc32)c1C	1.0
Cc1cc(Nc2ncc3c(n2)N(C)C(=O)N(c2cc(NC(=O)c4cccc(C(F)(F)F)c4)ccc2C)C3)n(C)n1	1.0
CC1(C)O[C@@H]2C[C@H]3[C@@H]4CCC5=CC(=O)C=C[C@]5(C)[C@@H]4[C@@H](O)C[C@]3(C)[C@]2(C(=O)CO)O1	0.0
CCNC(=O)Nc1ccc(-c2nc3c(c(N4CCOC[C@H]4C)n2)CCN(C2COC2)C3)cc1	1.0
O=C(O)CCCCCC(=O)NN=C1CCCC1	0.0
C#CCC(Cc1cnc2nc(N)nc(N)c2n1)c1ccc(C(=O)N[C@@H](CCC(=O)O)C(=O)O)cc1 (some centres not stated)	1.0
CCNC(=O)c1cc2c(-c3cc(OCCN4CCCC4)c(Cl)cc3Cl)nc(N)nc2s1	1.0
Cn1cc(C=CC(=O)c2cccc(F)c2)cc1C=CC(=O)NO	0.0
CC(Oc1ccc(O)cc1)(P(=O)(O)O)P(=O)(O)O	0.0
Cc1ccc([N+](=O)[O-])cc1S(=O)(=O)N(C)N=Cc1cnc2ccc(Br)cn12	1.0
C=CCNC1=C2C[C@@H](C)C[C@H](OC)[C@@H](O)[C@@H](C)C=C(C)[C@H](OC(N)=O)[C@@H](OC)C=CC=C(C)C(=O)NC(=CC1=O)C2=O	1.0
C#Cc1cccc(Nc2ncnc3cc(OCCOC)c(OCCO)cc23)c1	1.0
CCCNC(=O)[C@H]1O[C@H]1C(=O)N[C@H](C(=O)N1CCC[C@@H]1C(=O)OC)C(C)CC (some centres not stated)	1.0
CCOC(=O)N1CCN([N+]([O-])=NOc2ccc([N+](=O)[O-])cc2C#N)CC1	1.0
C[C@H]1[C@@H](OC(=O)CCC(=O)O)O[C@@H]2O[C@@]3(C)CC[C@@H]4[C@H](C)CC[C@@H]1[C@@]24OO3	1.0
CCOc1cc2ncc(C#N)c(Nc3ccc(OCc4ccccn4)c(Cl)c3)c2cc1NC(=O)C=CCN(C)C	1.0
C=CC[C@@H]1C=C(C)C[C@H](C)C[C@H](OC)[C@H]2O[C@@](O)(C(=O)C(=O)N3CCCC[C@H]3C(=O)O[C@H](C(C)=C[C@@H]3CC[C@H](O)[C@H](OC)C3)[C@@H](C)[C@@H](O)CC1=O)[C@@H](C)C[C@@H]2OC	1.0
CCc1c(O)cc(O)c(C(=O)c2ccc(OCCN3CCOCC3)c(OC)c2)c1CC(=O)N(CCOC)CCOC	1.0
